# target: F876L mutant Androgen Receptor (AR-F876L) (Homo sapiens (Human), UniProt P10275, F877L)
# Sequence (P10275 whole entry F877L): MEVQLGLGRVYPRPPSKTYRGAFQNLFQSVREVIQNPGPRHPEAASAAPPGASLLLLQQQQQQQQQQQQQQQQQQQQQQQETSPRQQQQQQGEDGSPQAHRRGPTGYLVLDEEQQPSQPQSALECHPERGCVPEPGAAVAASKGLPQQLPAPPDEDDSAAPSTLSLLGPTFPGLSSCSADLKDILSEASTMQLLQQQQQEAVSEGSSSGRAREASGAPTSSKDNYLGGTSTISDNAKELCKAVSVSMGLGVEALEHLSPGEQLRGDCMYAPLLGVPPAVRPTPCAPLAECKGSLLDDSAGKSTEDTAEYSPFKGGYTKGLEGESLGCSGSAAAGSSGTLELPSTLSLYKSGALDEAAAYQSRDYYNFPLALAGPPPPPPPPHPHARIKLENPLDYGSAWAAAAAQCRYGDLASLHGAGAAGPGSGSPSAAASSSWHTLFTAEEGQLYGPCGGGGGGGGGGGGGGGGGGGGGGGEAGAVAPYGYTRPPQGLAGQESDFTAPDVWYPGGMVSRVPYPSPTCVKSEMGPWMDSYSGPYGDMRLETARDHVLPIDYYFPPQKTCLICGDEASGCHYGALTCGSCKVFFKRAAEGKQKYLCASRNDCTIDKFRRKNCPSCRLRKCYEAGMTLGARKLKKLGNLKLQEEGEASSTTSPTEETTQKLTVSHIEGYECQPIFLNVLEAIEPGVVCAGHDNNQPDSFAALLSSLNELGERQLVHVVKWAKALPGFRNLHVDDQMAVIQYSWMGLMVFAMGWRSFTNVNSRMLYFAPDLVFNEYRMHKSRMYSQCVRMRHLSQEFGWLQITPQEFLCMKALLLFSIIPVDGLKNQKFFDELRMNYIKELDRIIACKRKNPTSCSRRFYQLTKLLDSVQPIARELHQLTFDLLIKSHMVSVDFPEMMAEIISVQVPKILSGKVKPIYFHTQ
# procedure details: LNCaP-AR-F876L AG reporter assay (agonist mode)
# Format: cell-based
# run parameters: maximum % stimulation (agonist response) over the tested concentration range; read-out: LNCaP-AR-F876L AG MAX % Stim
parameter: Emax (%)

Here is how some compounds turned out for Emax.
compound	Emax / %
C=CCN1CCC(Oc2ccc(N3C(=S)N(c4cnc(C#N)c(Cl)c4)C(=O)C34CCC4)cn2)CC1 [Cpd 89]	3.3
N#Cc1ncc(N2C(=O)C3(CCC3)N(c3ccc4c(cnn4CC4CCNCC4)c3)C2=S)cc1C(F)(F)F [Cpd 128]	0.3
N#Cc1ncc(N2C(=O)C3(CCC3)N(c3ccc(N4CCN(C(=O)N5CCCC5)CC4)cc3)C2=S)cc1C(F)(F)F [Cpd 76]	2.2
N#Cc1ncc(N2C(=O)C3(CCC3)N(c3ccc(OC4CC5CCC(N5)C4F)cc3)C2=S)cc1C(F)(F)F (stereo not shown) [Cpd 93]	0.2

(1) CN1CCC(n2ncc3cc(N4C(=S)N(c5cnc(C#N)c(Cl)c5)C(=O)C45CCC5)ccc32)CC1 [Cpd 183]
(2) CC(C)(C)OC(=O)NC1C(C)(C)C(Oc2ccc(N3C(=S)N(c4cnc(C#N)c(C(F)(F)F)c4)C(=O)C34CCC4)cc2)C1(C)C (stereo not shown) [Cpd 110]
(3) COc1ccc(N2C(=S)N(c3cnc(C#N)c(C(F)(F)F)c3)C(=O)C23CCC3)cn1 [Cpd 15]
[Q] Rank descending by Emax. I'd appreciate it if you listed the labels in the requested order.
[A] 3, 2, 1

----------
# target: F876L mutant Androgen Receptor (AR-F876L) (Homo sapiens (Human), UniProt P10275, F877L)
# procedure details: LNCaP-AR-F876L AG reporter assay (agonist mode)
# Type: cell-based
# run parameters: maximum % stimulation (agonist response) over the tested concentration range; read-out: LNCaP-AR-F876L AG MAX % Stim
parameter: Emax (%)

Here is how some molecules turned out for Emax.
molecule	Emax [%]
COCCN1CCC(Oc2ccc(N3C(=S)N(c4cnc(C#N)c(C)c4)C(=O)C34CCC4)cc2)CC1	0
COCCn1cc2ccc(N3C(=S)N(c4cnc(C#N)c(C(F)(F)F)c4)C(=O)C34CCC4)cc2n1	-0.2
CN1C2CCC1C(F)C(Oc1ccc(N3C(=S)N(c4cnc(C#N)c(C(F)(F)F)c4)C(=O)C34CCC4)cc1)C2 (centres unmarked)	0.2

(A) CN1CC(COc2ccc(N3C(=S)N(c4cnc(C#N)c(C(F)(F)F)c4)C(=O)C34CCC4)cc2)C1
(B) CC(=O)N1CCc2cc(N3C(=S)N(c4cnc(C#N)c(C(F)(F)F)c4)C(=O)C34CCC4)ccc2C1
[Q] Higher Emax: A or B ? Field: selected label. Fill in the label of the entry you choose.
[A] B
(B: 1.1%, A: 0.1%)

(a) CN1CCC(C(=O)c2ccc(N3C(=S)N(c4cnc(C#N)c(C(F)(F)F)c4)C(=O)C34CCC4)cc2)CC1
(b) CC(C)(C)OC(=O)N1CC(F)(F)CC1COc1ccc(N2C(=S)N(c3cnc(C#N)c(C(F)(F)F)c3)C(=O)C23CCC3)cc1 (centres unmarked)
(c) N#Cc1ncc(N2C(=O)C3(CCC3)N(c3ccc(O[C@H]4CCNC[C@@H]4F)cc3)C2=S)cc1C(F)(F)F (racemic)
[Q] Rank descending by Emax. I'd appreciate it if you listed the labels in the requested order.
[A] a, c, b

(1) CN1CCC(Oc2ccc(N3C(=S)N(c4cnc(C#N)c(Cl)c4)C(=O)C34CCC4)cc2)CC1
(2) N#Cc1ncc(N2C(=O)C3(CCC3)N(c3ccc(OC4CCN(CC(F)(F)F)CC4)cc3)C2=S)cc1C(F)(F)F
[Q] Higher Emax: 1 or 2 ? Field: selected label. Fill in the label of the entry you choose.
[A] 2

(P) CC(C)(C)OC(=O)N1CCC(Cn2cc3cc(N4C(=S)N(c5cnc(C#N)c(C(F)(F)F)c5)C(=O)C45CCC5)ccc3n2)CC1
(Q) N#Cc1ncc(N2C(=O)C3(CCC3)N(c3ccc(OCC4CNCCO4)cc3)C2=S)cc1C(F)(F)F (centres unmarked)
[Q] Form: Entry with minimum Emax (choose one): P / Q Field: selected label. Fill in the label of the entry you choose.
[A] P
(P: 0.7%, Q: 1.5%)

(I) CCOC(=O)N1CCN(Cc2ccc(N3C(=S)N(c4cnc(C#N)c(C(F)(F)F)c4)C(=O)C34CCC4)cc2)CC1
(II) CC(C)CCN1CCC(Oc2ccc(N3C(=S)N(c4cnc(C#N)c(Cl)c4)C(=O)C34CCC4)cn2)CC1
(III) N#Cc1ncc(N2C(=O)C3(CCC3)N(c3ccc(OC4CC5(CNC5)C4)cc3)C2=S)cc1C(F)(F)F
[Q] Rank descending by Emax. I'd appreciate it if you listed the labels in the requested order.
[A] II, I, III
(II: 1.5%, I: 0.5%, III: 0.1%)

(A) COCCN1CCC(Oc2ccc(N3C(=S)N(c4cnc(C#N)c(C(F)(F)F)c4)C(=O)C34CCC4)cc2)CC1
(B) N#Cc1ncc(N2C(=O)C3(CCC3)N(c3ccc(OC4CCN(CCO)CC4)nc3)C2=S)cc1C(F)(F)F
(C) N#Cc1ncc(N2C(=O)C3(CCC3)N(c3ccc(OC4CCN(CCF)CC4)nc3)C2=S)cc1C(F)(F)F
(D) CN1CC2CCC(C1)C2Oc1ccc(N2C(=S)N(c3cnc(C#N)c(C(F)(F)F)c3)C(=O)C23CCC3)cc1 (centres unmarked)
(E) N#Cc1ncc(N2C(=O)C3(CCC3)N(c3ccc(C4=C[C@@H](O)[C@H](O)CO4)cc3)C2=S)cc1C(F)(F)F
[Q] Task for the reader: rank each entry by its Emax, from the minimum upward. I'd appreciate it if you listed the labels in the requested order.
[A] D, B, E, A, C

(1) COCCN1CCC(Oc2ccc(N3C(=S)N(c4cnc(C#N)c(C(F)(F)F)c4)C(=O)C34CCC4)cn2)CC1
(2) COCc1ccc(-c2ccc(N3C(=S)N(c4cnc(C#N)c(C)c4)C(=O)C34CCC4)cc2)o1
[Q] Higher Emax: 1 or 2 ? Field: selected label. Fill in the label of the entry you choose.
[A] 2
(2: 0.9%, 1: 0.3%)

----------
# target: F876L mutant Androgen Receptor (AR-F876L) (Homo sapiens (Human), UniProt P10275, F877L)
# procedure details: LNCaP-AR-F876L ANT reporter assay (antagonist mode)
# Format: cell-based
# run parameters: antagonist mode; pIC50 = −Log10(IC50 in Molar); read-out: LNCaP-AR-F876L ANT pIC50 (converted)
parameter: IC50 (nM)

Here is how some compounds turned out for IC50.
compound	units label	result number
Cc1cc(N2C(=O)C3(CCC3)N(c3cnc(OC4CCN(C)CC4)nc3)C2=S)cnc1C#N	nM	1200
N#Cc1ncc(N2C(=O)C3(CCC3)N(c3ccc4nn(C5CCNCC5)cc4c3)C2=S)cc1Cl	nM	97.7
Cn1c(CCO)nc2cc(N3C(=S)N(c4cnc(C#N)c(C(F)(F)F)c4)C(=O)C34CCC4)ccc21	nM	2750
N#Cc1ncc(N2C(=O)C3(CCC3)N(c3ccc4c(c3)CCNC4)C2=S)cc1C(F)(F)F	nM	1020
N#Cc1ncc(N2C(=O)C3(CCC3)N(c3ccc(CC4CCNCC4)cc3)C2=S)cc1C(F)(F)F	nM	257

(1) CC(C)(C)OC(=O)N1CCC12CC(Oc1ccc(N3C(=S)N(c4cnc(C#N)c(C(F)(F)F)c4)C(=O)C34CCC4)cn1)C2 (centres unmarked)
(2) COCCn1cc2cc(N3C(=S)N(c4cnc(C#N)c(C(F)(F)F)c4)C(=O)C34CCC4)ccc2n1
[Q] Form: Entry with minimum IC50 (choose one): 1 / 2 Field: selected label. Fill in the label of the entry you choose.
[A] 2

----------
# target: F876L mutant Androgen Receptor (AR-F876L) (Homo sapiens (Human), UniProt P10275, F877L)
# procedure details: LNCaP-AR-F876L ANT reporter assay (antagonist mode)
# Format: cell-based
# run parameters: maximum % inhibition of R1881 control response over the tested concentration range; read-out: LNCaP-AR-F876L ANT MAX % Inh
parameter: Emax (%)

compound	units label	result number
CN1CCC(C(=O)c2ccc(N3C(=S)N(c4cnc(C#N)c(C(F)(F)F)c4)C(=O)C34CCC4)cc2)CC1	%	99.9
CN1C2C=C(c3ccc(N4C(=S)N(c5cnc(C#N)c(C(F)(F)F)c5)C(=O)C45CCC5)cc3)CC1CC2 (stereo not shown)	%	102
N#CCN1CCC(Oc2ccc(N3C(=S)N(c4cnc(C#N)c(C(F)(F)F)c4)C(=O)C34CCC4)cc2)CC1	%	101
CC(C)(C)OC(=O)N1C2CCC1C(F)C(Oc1ccc(N3C(=S)N(c4cnc(C#N)c(C(F)(F)F)c4)C(=O)C34CCC4)cc1)C2 (stereo not shown)	%	85.8
